Recorded values, source patent US20250354930A1.

# experimentSummary: Aqueous solubility
# Type: physicochemical
# conditionInfo: water
measuredMetric: solubility

INSERT INTO assay_data (molecule, experimentalvalue) VALUES
  ('CC1=C(c2ccc(OCCCCS(=O)(=O)O)cc2)/C(=C2/C(=O)C(c3c(-c4ccc(OCCCCS(=O)(=O)[O-])cc4)c(C)c4ccccn34)C2O)[n+]2ccccc21 (stereo not shown) [SO3SQ]', '~60 µM');
